Assay: amyloid nucleation score (Sup35N fusion, yeast selection) (log enrichment); library NNK1; higher = more nucleation; inactive = no reads after selection;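 also: zero at mode of non-aggregating sequences after 7 days selection at 30°C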
Param threshold (0.7) applies to amyloid nucleation score; output TRUE when value >= threshold, FALSE when value < threshold.

Consider the worked cases shown below.
WNEWRGHVTILGDLYSYRHT : TRUE
QHTNTSLSVTTPPVLYWNHC : FALSE
TWNKCKVADSLFMTRIIMVL : FALSE
SLYNTLEVNDNKHRVNFLVA : FALSE

Now for another entry.
Has `MHPFVRSEK` a recorded amyloid nucleation score greater than or equal to 0.7? FALSE

---

Assay: amyloid nucleation score (Sup35N fusion, yeast selection) (log enrichment); library NNK1; higher = more nucleation; inactive = no reads after selection
Decide by amyloid nucleation score: equal to or exceeding 0.2 means label 1, less means label 0.

YQYNATFFPSITRTNLETKG : label 1
RLLGYLAGVGNVKICRPSAV : label 0

Would you say `FNAVATKSVNRGRSLLDVTQ` shows amyloid nucleation score at minimum 0.2? label 1

Now consider `SFSSPHLPYTCGSSIG` and answer again. label 1

What about `ATVKVPNNSIRNDFFSNDRD` ? label 0

Proceed to `CGWRQKLVMVETVTGFSLWG` label 1

Follow-up item: `LGNIKFITYVERCTQEVVSY` label 0

Try this substance too: `CPHALYKSLIIPGSMFYKVR` label 0

---

Experiment: amyloid nucleation score (Sup35N fusion, yeast selection) (log enrichment); library NNK2; higher = more nucleation; inactive = no reads after selection
REPORTED_METRIC: amyloid nucleation score
Answer using only a numeral; do not append any unit.

HYSFYLVDYSFNISVGYFCT : 0.571
LPIRWVVVGEGSGVGRVWTW : 0.227
RLKYHWGGFEA : 0.767
SPHDVGNSIVIMGFRMWLN : 0.082
AILRRVKIQLPRIPPEYCGW : 0.884

Returns the measured amyloid nucleation score for the input substance. Input: `VNRVTRPNECYACQYMFGRW` 1.19

Field entry: `CVSEARRIE` -0.36

Same read-out for `AYGKLSE` ? -0.68

Also `GNMVFAPCDL` ? 1.07

Same question, `TETNRDWRLGDDW` this time 5.29

Okay, and `TNAACSPLTCGHQMAVSPNY` ? 0.358

`ACFSSSLCFVGMERSRSHNF` , same question. 1.91

Then `EAAYLVFSCVMCTFYFEFCF` ? 2.55

Moving on to `RLMHGRIRPLNSKWLTGLG` 1.11

`CFRRKGALSLIACRW` ? -0.03

---

// reported amyloid nucleation score for each item listed
Assay: amyloid nucleation score (Sup35N fusion, yeast selection) (log enrichment); library NNK2; higher = more nucleation; inactive = no reads after selection
No unit in the answer, please; the number alone is enough.

AAIMMN : -0.231
DSGVEMYLFNSRFLRSLGND : 3.65
LWFLYSAVTFTR : -0.856

For the substance `RTFYFYGRHR` , what amyloid nucleation score is on record? -1.11

Also, `SEGRATARQLLVKDTLFV` please. 4.06

`VYELCCLYMWLGHSNYAADM` , same question. 5.33

---

Experiment: amyloid nucleation score (Sup35N fusion, yeast selection) (log enrichment); library NNK2; higher = more nucleation; inactive = no reads after selection
Values of amyloid nucleation score greater than or equal to -0.01 map to Criterion met; values below map to Criterion not met.

Example entries and their recorded answers appear below.
GSYDLEGGLLHGLTTTSYNR : Criterion not met
SKFVSKSEV : Criterion not met
LLYCCLRWMDSIQGLRPAFE : Criterion met
MSICANLVLWWLDL : Criterion not met
FKNQGDLQTCLLFD : Criterion not met
VSKKFIIVVRNREFSP : Criterion met
SLVYKGLCILSTLFLYFDFL : Criterion not met
VHTAFRETLYRRDKMLCGMR : Criterion not met

Record `HNGIMFTCYLSP` ; criterion: amyloid nucleation score no lower than -0.01. Met? Criterion met

Now the same for `LTVRELLFTSRRHRARRHSC` Criterion met

---

Recorded amyloid nucleation score for the following substances
Assay: amyloid nucleation score (Sup35N fusion, yeast selection) (log enrichment); library NNK2; higher = more nucleation; inactive = no reads after selection
Please reply with the value in numeric form only.

Here are 6 substances together with their reported answers.
GKLLRHFGLMYCLFLIAAYG : 0.108
TGLDFGNLLLARCMSRV : 0.43
KRNRQMSFRMVSLTRNTSPH : 0.792
VAEYGLENDWFLHWQICMNS : -0.618
GVRKFLHPTTGPYMYTRCWA : 0.44
GLYYASYNN : -1.63

GET /values?readout=amyloid nucleation score&item= `YDLCGTALTVLGTVIY` 1.15

Quick one: `AINAKRHTWLFNLHSTFLCF` 2.8

Queued: `KCWNRYKHSDDIYGVGFPSI` -1.09

Same again, this time with `PCGSCMSQNKSIG` 0.167

Item: `NCLVISFKLWHNLMTVGYGD` 3.66

---

Test: amyloid nucleation score (Sup35N fusion, yeast selection) (log enrichment); library NNK1; higher = more nucleation; inactive = no reads after selection
Would you please tag the item true when its amyloid nucleation score is 0.2 or above, and false when it is below?

Consider the following illustrative entries.
NISDTIC : true
NECLWSSFYLIICFLVCYYY : true
RIYSFHILVS : false
RYVNRT : false
DRRRVVNINARQSVNIRFRM : true

Item `FPASNAQNLRLFQVGYGRPQ` with amyloid nucleation score of 0.2 or above? false

Also `ISPLSQYARLVRQVSRAWYD` , if possible. true

---

Assay: amyloid nucleation score (Sup35N fusion, yeast selection) (log enrichment); library NNK3; higher = more nucleation; inactive = no reads after selection
REPORTED_METRIC: amyloid nucleation score

Before answering, review these 5 worked examples.
FWNEVMNRLPGLL : inactive
STSFCSSLDLWSQEVIVASV : inactive
GCKTREVLLYWLIMRPGGYS : inactive
WVWIVSMVRRGSEAFEALEM : inactive
YLVTIILI : 1.32

Could you tell me which amyloid nucleation score is on file for `STVNVCYVSMGNWERLTDVR` ? 0.446

`FFPDGDQTYMA` , same question. inactive

And the next one, `YAFVCSDV` ? inactive

Follow-up entry: `FTYDCECALICINYT` 0.448

---

Experiment: amyloid nucleation score (Sup35N fusion, yeast selection) (log enrichment); library NNK1; higher = more nucleation; inactive = no reads after selection
Please mark true if the recorded amyloid nucleation score is equal to or greater than 0.7, and false if it falls below.

SYHVMNKDYMVYFKNTYKDK : true
PTLVRECFEALSVSDYPVPG : false
IRHIRPFFNVKDI : false
AVLNQYRELKQAGSFYVSTM : false
LVAFRYLRSGSSRLKFSVLF : false

Does the reported amyloid nucleation score for `NAFSDRLTGCRLRGGMGRTS` fall at or above the 0.7 mark? false

Again, but for `TSNIRVLGHAMVNWVCWGRD` true

---

Assay: amyloid nucleation score (Sup35N fusion, yeast selection) (log enrichment); library NNK3; higher = more nucleation; inactive = no reads after selection
REPORTED_METRIC: amyloid nucleation score

IGEMNTPMPAMKFVMRWLDH : 0.845
GVYSVTCMFYKWEVGWSSSD : inactive
VLSMRHSNTGMARCTDW : inactive
PNICGLGYYRLWSMLGITCW : inactive
CQHSRRLKGAAYKSCQMYRR : inactive
SFGILVYIRTAMPCTNIANY : inactive

amyloid nucleation score for `SWRPAICPLLVMKL` ? inactive

Now consider `RVRIKTWYRMMGYMLCWCEL` and answer again. inactive

---

Test: amyloid nucleation score (Sup35N fusion, yeast selection) (log enrichment); library NNK2; higher = more nucleation; inactive = no reads after selection
REPORTED_METRIC: amyloid nucleation score
Provide a numeric answer; units are not to be included.

NLDEVFMFTSTHLVIPLESK : -1.6
TRSPEYNCRSVEGTVSDKDK : -0.832
GWQGTLVNCLEDYVCYVCHA : 5.34
GDTVRRLRLEHKSVDLMIQY : 3.73

// returns reported amyloid nucleation score for input `FREVSSLRCIIFLHITCRNS` 0.647

Note, next up: `RVRDYSYGGSQRLGGYMLG` -0.64

Same question for `DHHDTTHYYIWVDKYKYLV` please. -0.216

And `YGFKGTSLR` ? -0.506

Now give it for `YCMLCQGWDGICLPEVSAVW` too. 0.146

How about this sequence: `RCLLKLDQV` -0.509

# repeat for `ANKTVFVLEMVGVRGFYLMP` 2.66

---

Assay: amyloid nucleation score (Sup35N fusion, yeast selection) (log enrichment); library NNK3; higher = more nucleation; inactive = no reads after selection
REPORTED_METRIC: amyloid nucleation score

Check out these entries, answers already filled in.
SQYIWFFSVVLSFFSSVSWC : -0.021
FCACLERQTSLNF : inactive
RGESHVCLCYL : 0.761
KVVVTIRTVCRKKVDVICID : 0.071
LKIRKFLTFKFSSALIIVVC : inactive

What amyloid nucleation score value was documented for this substance, `REEAVWQADFVYLTKSAILN` ? inactive

Now consider `SRQRIDYFMVRRSGSWSRQV` . inactive

Note, next up: `LFNGSSFITCSRTLGVL` inactive

Thanks! And `NCRRRKCVTGGGRS` ? 1.16

Try this substance too: `RSPEDFSGTCHAGRCSWVHG` -0.044

Param item: `FTNISVNNAVFVFVVCTAV` 2.52

Another: `TYSVGHR` inactive

Consider next the substance `FYLYPDVERLNFCIMVRHMF` in the same way. inactive
